Measured pC by item
Test system: Mycobacterium lufu
Assay: In vitro inhibition of Mycobacterium lufu dihydopterate synthase.
Answer using only a numeral; do not append any unit.

# Chemical string, System, Property name, Experimental result
records = [
    ("COc1cc(S(=O)(=O)c2ccc(N)cc2)ccc1N", "Mycobacterium lufu", "pC", 5.56),
    ("CCNc1ccc(S(=O)(=O)c2ccc(N)cc2)cc1O", "Mycobacterium lufu", "pC", 5.7),
    ("CCNc1ccc(S(=O)(=O)c2ccc(N)cc2)cc1OC", "Mycobacterium lufu", "pC", 5.49),
]

Fill in: pC of `Nc1ccc(S(=O)(=O)c2ccc(N)cc2N)cc1` is ___
5.99

Item under review: `Nc1ccc(S(=O)(=O)c2ccccc2[N+](=O)[O-])cc1` . Reported pC?
5.61

Quick one: pC for `CN(C)c1ccc(S(=O)(=O)c2ccc(N)cc2)cc1` ?
5.75

Which pC value belongs to `Nc1ccc(S(=O)(=O)c2ccc([N+](=O)[O-])cc2N)cc1` ?
4.93

Dear colleague, I am looking for the recorded pC of the following compound: `Nc1ccc(S(=O)(=O)c2ccccc2N)cc1`
5.65

Which pC reading was recorded for the compound `Nc1ccc(S(=O)(=O)c2ccc(Cl)cc2)cc1` ?
4.89

Any idea what its pC is? The compound is `Cc1cc(N)ccc1S(=O)(=O)c1ccc(N)cc1`
6.19

What value of pC has been reported for the following compound? `Nc1ccc(S(=O)(=O)c2ccc(O)cc2)cc1`
5.82

I have this compound here, `NNC(=O)c1ccc(S(=O)(=O)c2ccc(N)cc2)cc1` , and I need its recorded pC.
4.9

pC for `CCCNc1ccc(S(=O)(=O)c2ccc(N)cc2)cc1O` ?
5.64

# get_value(readout='pC', item= `Nc1ccc(S(=O)(=O)c2ccc(N)cc2[N+](=O)[O-])cc1` )
5.87

Consider the compound `COC(=O)CNc1ccc(S(=O)(=O)c2ccc(N)cc2)cc1` and give its measured pC.
5.65

Please look up its pC: `CC(=O)Nc1ccc(S(=O)(=O)c2ccc(N)cc2)cc1`
5.15

State the recorded pC for this entry: `CCNc1ccc(S(=O)(=O)c2ccc(N)cc2)c(OC)c1`
5.75

Fill in: pC of `Nc1ccc(S(=O)(=O)c2ccc(N)cc2)cc1` is ___
5.92
